Target: UniProt P04273
Assay: Binding affinity to Syrian hamster PrPC assessed as inhibition of PrPC protein conversion to PrPSc by measuring PrPSc level relative to untreated control
Design: concentration or dose not given beside the values
Use Met when the recorded Activity is no lower than 60%; use Not met when it is lower.

Study these solved cases before continuing.
C=CNC(=O)NC(C)=O :: Not met
CCC[C@@H]1Nc2ccccc2N1CC(=O)N1CCCc2ccccc21 :: Met
CCC(C)C(NC(=O)c1ccccc1)C(=O)N1CCc2ccccc21 (stereo not given) :: Not met

Inquiry: Assess whether reported Activity for Cc1cc2cc3c(cc2nc1SCCN1CCCCC1)OCCO3 sits at 60% or higher.
Reply text: Not met

Inquiry: Record: Cc1cccc2cc(C#N)c(N3CCCN(C(=O)C4CCC4)CC3)nc12
Reply text: Not met

Inquiry: // query: CN1/C(=C/C(=O)Nc2cccs2)c2ccccc2CC1(C)C
Reply text: Not met

Inquiry: Please do the same for O=C(COC(=O)c1c2c(nc3ccccc13)CCC2)NC1CCCC1 as well.
Reply text: Met

---

Target: Major prion protein (Mesocricetus auratus) (UniProt P04273)
Sequence (P04273 whole entry): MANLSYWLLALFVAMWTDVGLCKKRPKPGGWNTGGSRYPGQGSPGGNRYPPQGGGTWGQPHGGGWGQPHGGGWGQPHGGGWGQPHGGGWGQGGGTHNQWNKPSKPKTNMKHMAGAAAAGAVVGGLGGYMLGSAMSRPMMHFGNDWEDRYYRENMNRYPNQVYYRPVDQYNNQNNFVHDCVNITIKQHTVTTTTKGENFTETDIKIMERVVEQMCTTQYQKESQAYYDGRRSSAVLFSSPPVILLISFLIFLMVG
Assay: Binding affinity to Syrian hamster PrPC assessed as inhibition of PrPC protein conversion to PrPSc by measuring PrPSc level relative to untreated control
Set-up: concentration or dose not given beside the values
Each record is given MET if its reported Activity is strictly below 60%. Records at or above 60% are given NOT MET.

Inquiry: Report whether reported Activity is lower than 60% (strictly) for O=C(NC1CCCC1)C1CCCN1C(=O)Nc1ccccc1 (stereo unspecified)
Reply text: NOT MET

Inquiry: And the next one, CCCCNc1nc2ccccc2n1CC(=O)N1CCc2ccccc21 ?
Reply text: MET

Inquiry: Record: O=C(CN1CCc2ccccc21)[C@H]1COc2cc3c(cc21)CCC3
Reply text: NOT MET

Inquiry: Again, but for O=C(CN1C(=O)c2cccc3cccc1c23)N[C@@H]1C[C@H]2CC[C@@H]1C2
Reply text: NOT MET

Inquiry: Also, O=C(CCc1nc2ccccc2c(=O)[nH]1)NC1CCCc2ccccc21 (stereo unspecified) please.
Reply text: NOT MET

Inquiry: Please do the same for Cc1cccc2cc3c(N)c(C(=O)NC4CCCC4)sc3nc12 as well.
Reply text: MET

---

Target: Major prion protein (Mesocricetus auratus, UniProt P04273)
Sequence (P04273 whole entry): as above
Test: Binding affinity to Syrian hamster PrPC assessed as inhibition of PrPC protein conversion to PrPSc by Western blot
reported-endpoint: pEC50
Numbers only, as −log10 of the molar value.

Consider the worked cases shown below.
CN1/C(=C/C(=O)Nc2cccs2)c2ccccc2CC1(C)C :: 5.14
CCC(C)C(NC(=O)c1ccccc1)C(=O)N1CCc2ccccc21 (stereo not given) :: 5.13
N#Cc1c(NC(=O)c2cc3c(s2)CCCC3)sc2c1CCCC2 :: 5.14
O=C(CN1C(=O)N[C@@]2(CCCc3ccccc32)C1=O)N1CCCCC1 :: 5.14
CC1Cc2ccccc2N1C(=O)COc1ncnc2sccc12 (stereo not given) :: 5.14

For each of the items listed, what is its pEC50?
1. Cc1cccc2cc(C#N)c(N3CCCN(C(=O)C4CCC4)CC3)nc12
2. CCC[C@@H]1Nc2ccccc2N1CC(=O)N1CCCc2ccccc21
3. O=C(CN1C(=O)COc2ccccc21)N1CCCc2ccccc21
4. CCCCNc1nc2ccccc2n1CC(=O)N1CCc2ccccc21

Reply text:
1. 5.14
2. 5.14
3. 5.14
4. 5.13

Inquiry: Need pEC50 of O=C(COC(=O)c1c2c(nc3ccccc13)CCC2)NC1CCCC1 , thanks.
Reply text: 5.14

---

Molecular target: Major prion protein (Mesocricetus auratus, UniProt P04273)
Assay: Binding affinity to Syrian hamster PrPC assessed as inhibition of PrPC protein conversion to PrPSc by Western blot
reported-endpoint: pEC50
One number for each entry, as −log10 of the molar value.

Cc1cccc2cc3c(N)c(C(=O)NC4CCCC4)sc3nc12 :: 5.13
Cc1cc2cc3c(cc2nc1SCCN1CCCCC1)OCCO3 :: 5.14
CC1CCCCC1NC(=O)COc1ncnc2sc3c(c12)CCC3 (stereo unspecified) :: 5.15
C=CNC(=O)NC(C)=O :: 5.14
O=C(NC1CCCC1)C1CCCN1C(=O)Nc1ccccc1 (stereo unspecified) :: 5.14

Provide each entry's pEC50 from the list below.
1. O=C(N[C@@H]1CCc2ccccc2C1)C(=O)O[C@@H]1C=CCc2ccccc21
2. O=C(CC1CNc2ccccc21)NC1CCc2ccccc2C1 (stereo unspecified)
3. O=C(CSc1ncnc2sc3c(c12)CCC3)NCC1CCCO1 (stereo unspecified)
4. O=C(CCc1nc2ccccc2c(=O)[nH]1)NC1CCCc2ccccc21 (stereo unspecified)
5. O=C(CN1C(=O)c2cccc3cccc1c23)N[C@@H]1C[C@H]2CC[C@@H]1C2
6. C[C@@H]1CCCCN1CC(=O)N[C@@H]1S[C@H]2CCCC[C@@H]2[C@H]1C#N

Reply text:
5.14
5.14
5.15
5.14
5.14
5.14

---

Here's a batch of compounds along with measured pKd for UniProt P04273.
Give bare numbers, as −log10 of the molar value.

COc1ccc(-c2nc(N)sc2-c2ccc(OC)cc2)cc1 :: 4.81
CCC(C)C(NC(=O)c1ccccc1)C(=O)N1CCc2ccccc21 (stereo unspecified) :: 4.29
COc1ccc(OC)c(Nc2nnc(-c3cc4cccc(OC)c4oc3=O)s2)c1 :: 4.33

Each compound below has a recorded value; state its pKd.
1. Cc1cc2cc3c(cc2nc1SCCN1CCCCC1)OCCO3
2. COc1ccc(OC)c(-c2nc(NC(=O)c3cc(OC)c(OC)c(OC)c3)sc2C)c1
3. O=C(CC1CNc2ccccc21)NC1CCc2ccccc2C1 (stereo unspecified)

Reply text:
[4.29, 3.73, 4.31]

---

Biological target: Major prion protein (Mesocricetus auratus) (UniProt P04273)
Test: Binding affinity to Syrian hamster PrPC assessed as inhibition of PrPC protein conversion to PrPSc by measuring PrPSc level relative to untreated control
Design: concentration or dose not given beside the values
reported-endpoint: Activity (%)
One number for each entry, in %.

C[C@@H]1CCCCN1CC(=O)N[C@@H]1S[C@H]2CCCC[C@@H]2[C@H]1C#N :: 58.8
O=C(CC1CNc2ccccc21)NC1CCc2ccccc2C1 (stereo not drawn) :: 55.3
CC1CCCCC1NC(=O)COc1ncnc2sc3c(c12)CCC3 (stereo not drawn) :: 68.8
O=C(CN1C(=O)N[C@@]2(CCCc3ccccc32)C1=O)N1CCCCC1 :: 67.1
N#Cc1c(NC(=O)c2cc3c(s2)CCCC3)sc2c1CCCC2 :: 66.9

Please give Activity for each item listed below.
1. O=C(N[C@@H]1CCc2ccccc2C1)C(=O)O[C@@H]1C=CCc2ccccc21
2. CC1Cc2ccccc2N1C(=O)COc1ncnc2sccc12 (stereo not drawn)
3. O=C(CN1C(=O)COc2ccccc21)N1CCCc2ccccc21

Reply text:
[53, 67.4, 57.5]
